Data origin: patent US5358951A

- Tested on: vasopressor response of angiotensin II
- protocol_text: AII Challenge: antagonism of angiotensin II vasopressor response
- Type: in vivo
- applied_conditions: Rattus norvegicus, iv, […], 1 mg/kg i.v.; AII 0.05 mcg/kg IV; 90 min post dose
Counter-ions that a name gives are not always drawn.
Classify by measured inhibition in vivo at 1 mg/kg: t if it is equal to or exceeds 80%, f if it is smaller.

>>> classification("CCCCc1nc2ccc(C3(CO)CC4CCCN4O3)cc2c(=O)n1Cc1ccc(-c2ccccc2-c2nnn[nH]2)cc1 (stereo not shown)")
"t"
>>> classification("CCCCc1nc2ccc([C@@]3(C)C[C@@H]4CCCN4O3)cc2c(=O)n1Cc1ccc(-c2ccccc2-c2nnn[nH]2)cc1 (relative stereo) [Example 73, sodium salt]")
"t"
>>> classification("CCCCc1nc2ccc([C@]3(CC)C[C@@H]4CCCN4O3)cc2c(=O)n1Cc1ccc(-c2ccccc2-c2nnn[nH]2)cc1 (relative stereo)")
"f"
>>> classification("CCCCc1nc2ccc([C@@]3(c4ccccc4)C[C@@H]4CCCN4O3)cc2c(=O)n1Cc1ccc(-c2ccccc2-c2nnn[nH]2)cc1 (relative stereo)")
"f"
>>> classification("CCCCc1nc2ccc([C@@]3(C)C[C@@H]4CCC(C)(C)N4O3)cc2c(=O)n1Cc1ccc(-c2ccccc2-c2nnn[nH]2)cc1 (relative stereo)")
"f"
>>> classification("CCCCc1nc2ccc(C3(C(=O)OC)CC4CCCN4O3)cc2c(=O)n1Cc1ccc(-c2ccccc2-c2nnn[nH]2)cc1 (mixture of isomers)")
"f"
>>> classification("CCCCc1nc2ccc([C@@]3(CC)C[C@@H]4CCCN4O3)cc2c(=O)n1Cc1ccc(-c2ccccc2-c2nnn[nH]2)cc1 (relative stereo)")
"f"

---

# IC50 annotations
- target_entity: Angiotensin II Receptor (Bos taurus, UniProt P25104)
- Construct: fresh adrenal glands received on crushed ice are cleaned of fatty tissues; from tissue; host or cells: beef adrenal cortex, microsomal membranes (100,000×g pellet)
- Sequence (P25104 whole entry): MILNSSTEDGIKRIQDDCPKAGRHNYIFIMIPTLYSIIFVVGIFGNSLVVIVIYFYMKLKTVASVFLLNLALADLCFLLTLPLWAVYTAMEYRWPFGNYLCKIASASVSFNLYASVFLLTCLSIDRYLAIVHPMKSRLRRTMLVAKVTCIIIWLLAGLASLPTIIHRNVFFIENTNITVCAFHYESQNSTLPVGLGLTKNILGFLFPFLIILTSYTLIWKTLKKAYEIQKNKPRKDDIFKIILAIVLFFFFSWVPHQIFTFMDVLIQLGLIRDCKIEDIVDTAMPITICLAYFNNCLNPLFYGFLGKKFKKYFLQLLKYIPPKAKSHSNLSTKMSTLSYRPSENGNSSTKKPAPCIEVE
- protocol_text: Receptor Binding Assay: displacement of [^125 I](Sar^1,Ile^8)AngII
- Type: beef (adrenal cortex microsomal membranes)
- applied_conditions: read-out: Angiotensin II Receptor Binding IC50
measurement_label: IC50 (nM)

>>> quantitative_result("CCCCc1nc2ccc(C3(C)CC4c5ccccc5CCN4O3)cc2c(=O)n1Cc1ccc(-c2ccccc2-c2nnn[nH]2)cc1 (stereo not drawn)")
94
>>> quantitative_result("CCCCc1nc2ccc([C@@H]3C[C@H]4c5ccccc5CCN4O3)cc2c(=O)n1Cc1ccc(-c2ccccc2-c2nnn[nH]2)cc1 (relative stereo)")
54
>>> quantitative_result("CCCCc1nc2ccc([C@@]3(CC)C[C@@H]4CCCN4O3)cc2c(=O)n1Cc1ccc(-c2ccccc2-c2nnn[nH]2)cc1 (relative stereo)")
63

---

- Test system: vasopressor response of angiotensin II
- protocol_text: AII Challenge: antagonism of angiotensin II vasopressor response;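 as to Response Average Change: post-dose Angiotensin II-evoked rise in systolic blood pressure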
- Type: in vivo
- applied_conditions: 5 mg/kg P.O.; AII 0.05 mcg/kg IV; 60 min post dose
# Response Average Change annotations
measurement_label: Response Average Change (mmHg)

>>> quantitative_result("CCCCc1nc2ccc(C3ON4CCCC4C3C(=O)OCC)cc2c(=O)n1Cc1ccc(-c2ccccc2-c2nnn[nH]2)cc1 (centres unmarked)")
37.5
>>> quantitative_result("CCCCc1nc2ccc([C@@H]3C[C@H]4CCC(C)(C)N4O3)cc2c(=O)n1Cc1ccc(-c2ccccc2-c2nnn[nH]2)cc1 (relative stereo)")
29
>>> quantitative_result("CCCCc1nc2ccc([C@@]3(C)C[C@@H]4CCC(C)(C)N4O3)cc2c(=O)n1Cc1ccc(-c2ccccc2-c2nnn[nH]2)cc1 (relative stereo)")
7.5
>>> quantitative_result("CCCCc1nc2ccc([C@@H]3C[C@H]4CCCN4O3)cc2c(=O)n1Cc1ccc(-c2ccccc2-c2nnn[nH]2)cc1 (racemic)")
25
>>> quantitative_result("CCCCc1nc2ccc([C@]3(C)C[C@@H]4CCCN4O3)cc2c(=O)n1Cc1ccc(-c2ccccc2-c2nnn[nH]2)cc1 (relative stereo)")
12.5
